- Species on record: Rattus norvegicus
- measurementNotes: Open TG-GATES - Regimen: Daily Repeat
- Type: toxicity, organism-based, Sprague-Dawley
- Set-up: regimen Daily Repeat, gender Male, age 6 weeks
- particulars: in vivo, po, 0 mg/kg, […], tissue Plasma, route gavage, dose level Control, time 14 day
Attribute: AST

{"molecule": "O=C(O)c1cccnc1", "AST": "68 IU/L"}

For reference, reported AST for `O=C(N[C@H](CO)[C@H](O)c1ccc([N+](=O)[O-])cc1)C(Cl)Cl` stands at 63.6 IU/L

For reference, reported AST for CC(=N)S [THIOACETAMIDE] stands at 64.8 IU/L
